The values you see were collected from patent US20120245137A1.

Catalogue of IC50 readings, one per entry.
# measured_on: T-type calcium channel (Homo sapiens, UniProt O43497)
# Sequence (O43497 whole entry): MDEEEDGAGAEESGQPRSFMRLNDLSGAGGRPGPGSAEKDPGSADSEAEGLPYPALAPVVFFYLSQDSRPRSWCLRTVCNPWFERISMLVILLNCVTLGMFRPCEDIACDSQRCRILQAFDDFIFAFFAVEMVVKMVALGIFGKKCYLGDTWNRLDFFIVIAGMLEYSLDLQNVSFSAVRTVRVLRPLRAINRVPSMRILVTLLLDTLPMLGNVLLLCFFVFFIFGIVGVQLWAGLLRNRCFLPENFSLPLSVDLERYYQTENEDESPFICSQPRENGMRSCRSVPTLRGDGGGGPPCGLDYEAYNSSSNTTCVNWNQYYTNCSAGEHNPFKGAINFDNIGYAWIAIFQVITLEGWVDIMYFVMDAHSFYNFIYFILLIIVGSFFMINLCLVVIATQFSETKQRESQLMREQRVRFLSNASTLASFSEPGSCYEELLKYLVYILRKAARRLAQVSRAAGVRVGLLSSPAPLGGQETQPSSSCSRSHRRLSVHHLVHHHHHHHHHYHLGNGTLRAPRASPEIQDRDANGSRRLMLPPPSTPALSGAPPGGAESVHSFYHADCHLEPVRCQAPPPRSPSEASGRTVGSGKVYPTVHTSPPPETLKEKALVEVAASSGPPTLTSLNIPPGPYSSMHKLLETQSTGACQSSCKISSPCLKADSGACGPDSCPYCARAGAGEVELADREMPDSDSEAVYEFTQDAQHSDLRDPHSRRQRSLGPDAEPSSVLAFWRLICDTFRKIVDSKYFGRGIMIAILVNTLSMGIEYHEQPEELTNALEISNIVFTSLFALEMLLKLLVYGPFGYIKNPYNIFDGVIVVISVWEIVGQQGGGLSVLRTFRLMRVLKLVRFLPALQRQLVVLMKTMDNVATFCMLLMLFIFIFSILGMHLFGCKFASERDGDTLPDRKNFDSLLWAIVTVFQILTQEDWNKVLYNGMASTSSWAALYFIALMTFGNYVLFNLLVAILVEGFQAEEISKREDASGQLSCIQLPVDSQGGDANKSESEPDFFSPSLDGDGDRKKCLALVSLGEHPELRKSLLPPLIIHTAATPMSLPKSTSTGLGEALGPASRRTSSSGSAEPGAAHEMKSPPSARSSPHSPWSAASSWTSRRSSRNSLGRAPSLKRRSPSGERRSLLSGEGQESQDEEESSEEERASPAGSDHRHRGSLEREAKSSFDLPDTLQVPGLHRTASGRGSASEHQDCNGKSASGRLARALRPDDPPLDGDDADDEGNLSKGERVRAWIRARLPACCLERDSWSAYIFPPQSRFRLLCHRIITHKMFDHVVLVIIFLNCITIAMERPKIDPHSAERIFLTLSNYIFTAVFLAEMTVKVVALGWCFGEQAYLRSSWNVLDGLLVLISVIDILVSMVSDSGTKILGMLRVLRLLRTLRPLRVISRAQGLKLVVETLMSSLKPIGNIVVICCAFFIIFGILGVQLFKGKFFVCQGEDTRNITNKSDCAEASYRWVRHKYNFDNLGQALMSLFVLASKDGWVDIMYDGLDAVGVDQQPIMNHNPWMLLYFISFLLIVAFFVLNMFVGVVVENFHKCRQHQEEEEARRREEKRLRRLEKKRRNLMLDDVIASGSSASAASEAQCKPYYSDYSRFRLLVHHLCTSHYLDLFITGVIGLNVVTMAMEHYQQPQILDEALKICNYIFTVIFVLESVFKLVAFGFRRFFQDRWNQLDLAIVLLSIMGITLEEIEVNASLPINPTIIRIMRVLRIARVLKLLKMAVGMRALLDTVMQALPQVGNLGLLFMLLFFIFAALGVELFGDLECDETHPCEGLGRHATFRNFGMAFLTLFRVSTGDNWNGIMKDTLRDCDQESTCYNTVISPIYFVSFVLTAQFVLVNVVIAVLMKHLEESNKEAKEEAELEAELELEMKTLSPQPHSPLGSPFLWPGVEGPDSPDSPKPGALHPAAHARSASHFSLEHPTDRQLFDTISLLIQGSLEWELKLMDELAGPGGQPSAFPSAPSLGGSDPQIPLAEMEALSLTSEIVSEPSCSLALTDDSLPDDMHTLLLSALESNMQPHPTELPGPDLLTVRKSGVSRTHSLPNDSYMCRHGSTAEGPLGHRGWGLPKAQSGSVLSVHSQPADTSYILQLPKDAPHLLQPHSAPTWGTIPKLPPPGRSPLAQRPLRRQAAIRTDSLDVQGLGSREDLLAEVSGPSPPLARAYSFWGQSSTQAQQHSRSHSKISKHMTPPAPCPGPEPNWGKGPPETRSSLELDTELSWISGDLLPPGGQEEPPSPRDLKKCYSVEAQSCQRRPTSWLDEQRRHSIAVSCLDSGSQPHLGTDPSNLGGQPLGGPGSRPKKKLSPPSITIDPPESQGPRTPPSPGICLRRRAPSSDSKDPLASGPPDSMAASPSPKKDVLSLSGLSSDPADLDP
# run_description: T-type channel blocking, FLIPR data (Table 6)
# assay_conditions: CAv3.1

Study these solved cases before continuing.
CC(C)([C@H]1C[C@H](NC(=O)c2ccc(C(F)(F)F)cc2)C1)S(=O)(=O)c1cccc(C(F)(F)F)c1 2790 nM
CC(C)([C@H]1C[C@@H](C(=O)Nc2cc(C(F)(F)F)n[nH]2)C1)S(=O)(=O)c1cccc(C(F)(F)F)c1 2220 nM
CC(C)([C@H]1C[C@@H](CNc2ccnc(C(F)(F)F)n2)C1)S(=O)(=O)c1cccc(C(F)(F)F)c1 5830 nM

# input for lookup
IN: Write IC50 of `O=C(NC[C@H]1C[C@H](S(=O)(=O)c2cccc(OC(F)(F)F)c2)C1)c1ccc(Cl)cn1` ; system used: T-type calcium channel (Homo sapiens, UniProt O43497)
OUT: ≥ 10000 nM

* * *

Catalogue of IC50 readings, one per entry.
# measured_on: Human Cav 2.2 channels (Homo sapiens, UniProt Q00975)
# run_description: Fluorescent assay for CaV2.2 channels using potassium depolarization (VIPR/FLIPR)
# Type: cell-based
# assay_conditions: FLIPR data; closed state; read-out: CAv2.2 IC50 Closed
The answer is to be given in µM; state only the numeric part.

Study these solved cases before continuing.
molecule	unit_spec	observed_result
CC(C)([C@H]1C[C@@H](CNC(=O)c2ccc(F)c(Cl)c2)C1)S(=O)(=O)c1cccc(C(F)(F)F)c1 [Compound 685]	µM	1.87
CC(C)([C@H]1C[C@@H](NC(=O)c2ccc(C(F)(F)F)cc2S(C)(=O)=O)C1)S(=O)(=O)c1cccc(OC(F)(F)F)c1 [Compound 643]	µM	10

# input for lookup
IN: Give the reported IC50 for this molecule. CC(C)([C@H]1C[C@H](NC(=O)c2ccc(S(C)(=O)=O)cc2Cl)C1)S(=O)(=O)c1cccc(C(F)(F)F)c1 [Compound 680]
OUT: 10

* * *

# measured_on: Human Cav 2.2 channels (Homo sapiens)
# run_description: Fluorescent assay for CaV2.2 channels using potassium depolarization (VIPR/FLIPR)
# Type: cell-based
# assay_conditions: FLIPR data; inactivated state; read-out: CAv2.2 IC50 Inact.
Records here are stratified by IC50; strata: lower (below 300 nM), middle (300 nM to below 900 nM), upper (900 nM or more)

Solved cases (4 shown):
molecule	label
CC(C)(C[C@H]1C[C@@H](NC(=O)[C@@H]2CCCC[C@@H]2N)C1)S(=O)(=O)c1cccc(C(F)(F)F)c1 [Compound 740]	middle
O=C(NC[C@H]1C[C@H](S(=O)(=O)c2cc(F)cc(C(F)(F)F)c2)C1)c1ccnc(C(F)(F)F)n1 [Compound 710]	upper
Cn1nc(C(F)(F)F)cc1C(=O)N[C@H]1C[C@@H](CC(C)(C)S(=O)(=O)c2cccc(C(F)(F)F)c2)C1 [Compound 738]	lower
CC(C)([C@H]1C[C@H](C(=O)NCc2ccc(Oc3ccccc3)cc2)C1)S(=O)(=O)c1cccc(C(F)(F)F)c1 [Compound 764]	lower

IN: For CC(C)(C1CC(CNC(=O)c2ccnc(C(F)(F)F)n2)C1)S(=O)(=O)c1cccc(C(F)(F)F)c1 (centres unmarked) [Compound 615] , which IC50 bin applies?
OUT: lower

IN: For CC(C)(C1CC(CNC(=O)c2cnc(C(F)(F)F)nc2)C1)S(=O)(=O)c1cccc(C(F)(F)F)c1 (centres unmarked) [Compound 616] , which IC50 bin applies?
OUT: middle

IN: For O=C(NC[C@H]1C[C@H](S(=O)(=O)c2cccc(Cl)c2)C1)c1ccc(C(F)(F)F)cn1 [Compound 774] , which IC50 bin applies?
OUT: upper

IN: For O=C(c1ccc(C(F)(F)F)cn1)N1CC(CS(=O)(=O)c2cc(F)cc(C(F)(F)F)c2)C1 [Compound 746] , which IC50 bin applies?
OUT: upper

IN: For CC(C)([C@H]1C[C@@H](NC(=O)c2ccc(Cl)c(F)c2)C1)S(=O)(=O)c1cc(F)cc(C(F)(F)F)c1 [Compound 589] , which IC50 bin applies?
OUT: lower

IN: For CC(C)([C@H]1C[C@H](NS(=O)(=O)c2ccc(C(F)(F)F)cc2)C1)S(=O)(=O)c1cccc(C(F)(F)F)c1 [Compound 663] , which IC50 bin applies?
OUT: middle

IN: For Cc1nc(S(=O)(=O)N[C@H]2C[C@H](C(C)(C)S(=O)(=O)c3cc(F)cc(C(F)(F)F)c3)C2)cn1C [Compound 611] , which IC50 bin applies?
OUT: upper
